The measurements presented in this section are drawn from ChEMBL document CHEMBL1134211.

# METHOD SUMMARY: Displacement of [3H]naltrindole from Opioid receptor delta 1 of guinea pig brain membranes
Assignment: determine reported pKi for the given molecules.
Numbers only, as −log10 of the molar value.

- MOLECULE: "C[C@@H]1[C@@H]2Cc3ccc(O)cc3[C@@]1(C)CN2CC1CC1"
  READING: 5.96

Okay, now this molecule:
The molecule identified as C[C@H]1[C@H]2Cc3ccc(O)cc3[C@@]1(C)CCN2CC1CC1 (racemic) registered its pKi at 8.96

* * *

Endpoint: pKi. System: Mu-type opioid receptor (Cavia porcellus, UniProt P97266). Items follow.
Sequence (P97266 whole entry): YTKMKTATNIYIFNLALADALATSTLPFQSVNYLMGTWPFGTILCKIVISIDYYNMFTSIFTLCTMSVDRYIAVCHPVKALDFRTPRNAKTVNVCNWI
Numbers only, as −log10 of the molar value.

- COMPOUND: "CC[C@@]12CCN(CC3CC3)C(C(=O)c3ccc(C(N)=O)cc31)[C@@H]2C (mixture of isomers)"
  pKi: 8.92
- COMPOUND: "COC(=O)c1ccc2c(c1)[C@@]1(C)CCN(CC3CC3)C(C2)[C@@H]1C (mixture of isomers)"
  pKi: 7.35

Okay, now this compound:
The compound identified as CNC(=O)c1ccc2c(c1)[C@@]1(C)CCN(CC3CC3)C(C2)[C@@H]1C (mixture of isomers) registered its pKi at 7.62

* * *

# TARGET OF ASSAY: Kappa-type opioid receptor (Cavia porcellus)
# Sequence (P41144 whole entry): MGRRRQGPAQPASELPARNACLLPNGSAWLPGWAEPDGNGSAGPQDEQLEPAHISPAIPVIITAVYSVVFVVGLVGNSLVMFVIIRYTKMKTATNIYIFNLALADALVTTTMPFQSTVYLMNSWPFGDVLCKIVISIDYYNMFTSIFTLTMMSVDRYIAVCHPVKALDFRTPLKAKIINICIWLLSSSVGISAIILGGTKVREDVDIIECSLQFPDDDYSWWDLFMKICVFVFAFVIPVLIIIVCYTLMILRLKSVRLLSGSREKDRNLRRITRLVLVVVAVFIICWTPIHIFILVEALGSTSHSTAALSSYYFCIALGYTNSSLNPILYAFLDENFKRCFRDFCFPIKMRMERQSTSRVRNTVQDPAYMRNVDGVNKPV
Assignment: determine reported pKi for the given compounds.
Give bare numbers, as −log10 of the molar value.

A selection of reference data follows.
- COMPOUND: "CNC(=O)c1ccc2c(c1)[C@@]1(C)CCN(CC3CC3)C(C2)[C@@H]1C (mixture of isomers)"
  TARGET OF ASSAY: "Kappa-type opioid receptor (Cavia porcellus)"
  pKi: 8.59
- COMPOUND: "C[C@H]1C2Cc3ccc(C(=O)N(C)C)cc3[C@@]1(C)CCN2CC1CC1 (mixture of isomers)"
  TARGET OF ASSAY: "Kappa-type opioid receptor (Cavia porcellus)"
  pKi: 5.60

Hey, quick one: what's pKi for each of these?
1. C[C@H]1C2Cc3ccc(C(=O)Nc4ccccc4)cc3[C@@]1(C)CCN2CC1CC1 (mixture of isomers)
2. CC[C@@]12CCN(CC3CC3)C(C(=O)c3ccc(C(N)=O)cc31)[C@@H]2C (mixture of isomers)
3. C[C@H]1C2Cc3ccc(C(=O)O)cc3[C@@]1(C)CCN2CC1CC1 (mixture of isomers)

Data returned:
1: 6.34; 2: 9.15; 3: 7.51

* * *

Endpoint: Ki. System: Mu-type opioid receptor (Cavia porcellus). Items follow.
Answers are plain numbers, in nM.

A selection of reference data follows.
- COMPOUND: "C[C@H]1C2Cc3ccc(C(=O)Nc4ccccc4)cc3[C@@]1(C)CCN2CC1CC1 (mixture of isomers)"
  Ki, nM: 740
- COMPOUND: "C[C@H]1C2Cc3ccc(C(=O)N(C)C)cc3[C@@]1(C)CCN2CC1CC1 (mixture of isomers)"
  Ki, nM: 3000
- COMPOUND: "C[C@H]1C2Cc3ccc(C(=O)O)cc3[C@@]1(C)CCN2CC1CC1 (mixture of isomers)"
  Ki, nM: 58

Okay, now this compound:
The compound identified as C[C@H]1C2Cc3ccc(C#N)cc3[C@@]1(C)CCN2CC1CC1 (mixture of isomers) registered its Ki at 540
